Ref: PubChem BioAssay

# EXPERIMENTAL_DETAILS: Wnt pathway potentiators raising nuclear beta-catenin – imaging, WNT3A-conditioned medium, mouse C2C12, NPC library, primary screen (AID 1117326)
# CONDITION: at 10 µM, stronger effect = higher value
Item-by-item account of nuclear beta-catenin stimulation
Answer in %, number only, no unit symbol.

O=C(CCCCC(=O)Nc1c(I)cc(I)c(C(=O)O)c1I)Nc1c(I)cc(I)c(C(=O)O)c1I
1.1
CC(C)NCC(O)COc1ccc(COCCOC(C)C)cc1 (stereo unspecified)
0.8
Cc1ccc(NC(=O)c2ccc(CN3CCN(C)CC3)cc2)cc1Nc1nccc(-c2cccnc2)n1
7.1

# next compound below
Respond only with nuclear beta-catenin stimulation recorded for C[C@@H]1C[C@H]2[C@@H]3CCC4=CC(=O)C=C[C@]4(C)[C@@]3(F)[C@@H](O)C[C@]2(C)[C@H]1C(=O)CO
-1.6

----------
Item-by-item account of tube area decrease
# EXPERIMENTAL_DETAILS: inhibition of endothelial tube formation, primary screen, imaging, VEGF stimulated, CD31 staining, tube area, NPC library (AID 1117340)
# CONDITION: VEGF-stimulated ADSC/ECFC co-culture, at 10 µM, stronger effect = higher value
Answer in %, number only, no unit symbol.

The following compounds have reported results that may help.
CN(C)CCC(c1ccccc1)c1ccccn1 (stereo unspecified)
1.9
CN1CCN(c2c(F)cc3c(=O)c(C(=O)O)cn4c3c2SCC4)CC1
-3.6
NNc1nncc2ccccc12
5.9

Respond only with tube area decrease recorded for CNC[C@H](O)[C@@H](O)[C@H](O)[C@H](O)CO
-17.1

Respond only with tube area decrease recorded for CN(C)CCc1c[nH]c2ccc(CS(=O)(=O)N3CCCC3)cc12
8.7

Respond only with tube area decrease recorded for CC(C)(Oc1ccc(CCNC(=O)c2ccc(Cl)cc2)cc1)C(=O)O
-25.4

Respond only with tube area decrease recorded for CC(=O)OC(C)C[N+](C)(C)C (stereo unspecified)
4.4

Respond only with tube area decrease recorded for CN(C)CCCN1c2ccccc2Sc2ccccc21
12.3

----------
# EXPERIMENTAL_DETAILS: blockers of cytochrome c efflux from mitochondria – biochemical, purified mitochondria (AID 1603);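 also: mouse liver mitochondria challenged with calcium chloride; signal normalized to the plate average as 100%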
# CONDITION: stronger effect = lower value
QUANTITY: cytochrome c release ratio
Keep the answer to the number alone.

The following compounds have reported results that may help.
CCn1cc(C(=O)O)c(=O)c2cc(F)c(N3CCNC(C)C3)c(F)c21 (configuration not stated)
1.13
COc1ccc2[nH]cc(CCNC(C)=O)c2c1
0.49
CN1CCN2c3ccccc3Cc3ccccc3C2C1 (configuration not stated)
0.7
Cc1cc(NC(=O)C2=C(O)c3ccccc3S(=O)(=O)N2C)no1
1.04
CC1=CC(=O)c2ccccc2C1=O
1.17
NNc1nncc2ccccc12
0.9

# next compound below
Respond only with cytochrome c release ratio recorded for C[n+]1ccccc1/C=N/O
1.18

----------
Item-by-item account of parasite load remaining
# EXPERIMENTAL_DETAILS: P. berghei load reduction in hepatocytes – cell-based, HepG2, luciferase luminescence, HepG2 viability, primary screen (AID 624349);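 also: 100% = mean of DMSO negative control wells on the same plate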
# CONDITION: P. berghei liver stage in HepG2, luciferase luminescence, concentration not given here; stronger effect = lower value
Answer in %, number only, no unit symbol.

Nc1nccs1
56.3
CCN1CC(CCN2CCOCC2)C(c2ccccc2)(c2ccccc2)C1=O (configuration not stated)
66
Brc1c(NC2=NCCN2)ccc2nccnc12
54.7

Respond only with parasite load remaining recorded for NCCS(=O)(=O)O
52.5

Respond only with parasite load remaining recorded for CCCCCCOc1ccccc1C(N)=O
151

Respond only with parasite load remaining recorded for Cc1cc2c(C(C)C)c(O)c(O)c(C=O)c2c(O)c1-c1c(C)cc2c(C(C)C)c(O)c(O)c(C=O)c2c1O
56.7

Respond only with parasite load remaining recorded for CCCCC1(COC(=O)CCC(=O)O)C(=O)N(c2ccccc2)N(c2ccccc2)C1=O
87.9

Respond only with parasite load remaining recorded for Nc1ccc(C(=O)Oc2ccccc2)c(O)c1
67.6

Respond only with parasite load remaining recorded for O=C1N(c2ccccc2)c2ccccc2C1(Cc1ccncc1)Cc1ccncc1
77.9

Respond only with parasite load remaining recorded for COc1ccc(-c2cc(C(F)F)nn2-c2ccc(S(N)(=O)=O)cc2)cc1F
70.5

Respond only with parasite load remaining recorded for NCC1CCC(C(=O)Oc2ccc(CCC(=O)O)cc2)CC1 (configuration not stated)
104

Respond only with parasite load remaining recorded for O=C(c1ccc(F)cc1)C1CCN(CCn2c(=S)[nH]c3ccccc3c2=O)CC1
28.9

----------
# EXPERIMENTAL_DETAILS: GLP1 release stimulators, primary, NCI-H716, NPC library (AID 1117341)
# CONDITION: NCI-H716 cells, at 10 µM, stronger effect = higher value
Item-by-item account of GLP1 secretion stimulation
Answer in %, number only, no unit symbol.

The following compounds have reported results that may help.
CNC[C@H](O)c1ccc(O)c(O)c1
2.1
COc1cc(N)c(Cl)cc1C(=O)NC1CCN(Cc2ccccc2)CC1
-0.7
Oc1cc(O)c2c(c1)O[C@H](c1ccc(O)c(O)c1)[C@H](O)C2
-3.1
CO[C@]12C[C@@H](COC(=O)c3cncc(Br)c3)CN(C)[C@@H]1Cc1cn(C)c3cccc2c13
7.1
COc1ccc(C2C(=O)c3ccccc3C2=O)cc1
-6

Respond only with GLP1 secretion stimulation recorded for CN(C)CC[C@@H](c1ccc(Cl)cc1)c1ccccn1
5.7

Respond only with GLP1 secretion stimulation recorded for CC(C)c1ccc2oc3nc(N)c(C(=O)O)cc3c(=O)c2c1
0.3

Respond only with GLP1 secretion stimulation recorded for CCn1cc(C(=O)O)c(=O)c2cnc(N3CCCC3)nc21
1.2

Respond only with GLP1 secretion stimulation recorded for CCCCCN(CCCCC)C(=O)C(CCC(=O)O)NC(=O)c1ccc(Cl)c(Cl)c1 (centres undefined)
6.6

Respond only with GLP1 secretion stimulation recorded for Nc1ccc(S(=O)(=O)NC(=O)c2ccccc2)cc1
0.6

Respond only with GLP1 secretion stimulation recorded for CC(=O)OCC(=O)[C@@]1(O)[C@H](OC(C)=O)C[C@H]2[C@@H]3CCC4=CC(=O)C=C[C@]4(C)[C@@]3(F)[C@@H](O)C[C@@]21C
2.4

Respond only with GLP1 secretion stimulation recorded for Cn1c([N+](=O)[O-])cnc1COC(N)=O
0.7

Respond only with GLP1 secretion stimulation recorded for CC(=O)Nc1cccc(O)c1
-0.3

Respond only with GLP1 secretion stimulation recorded for N[C@@H](CCC(=O)N[C@@H](CS)C(=O)NCC(=O)O)C(=O)O
-3.8

Respond only with GLP1 secretion stimulation recorded for CN(C)C(=O)Nc1ccc(Cl)c(Cl)c1
-0.7

Respond only with GLP1 secretion stimulation recorded for Oc1ccc(OCc2ccccc2)cc1
2.7

Respond only with GLP1 secretion stimulation recorded for CCOc1ccc(Cc2nccc3cc(OCC)c(OCC)cc23)cc1OCC
4.1

Respond only with GLP1 secretion stimulation recorded for NS(=O)(=O)c1cc2c(cc1Cl)NC(C(Cl)Cl)NS2(=O)=O (centres undefined)
0.9

----------
# EXPERIMENTAL_DETAILS: growth inhibition, single agents and combos, CRL2098, cell-based, BGB or cisplatin IC20 combos, synergistic combos for chromothripsis tumors (AID 1671454);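 also: cells exposed for 96 h before readout; 0% = vehicle DMSO and 100% = killing by high DMSO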
# CONDITION: CRL2098 osteosarcoma cells, drug combinations, at 0.5 µM, stronger effect = higher value
Item-by-item account of inhibition
Answer in %, number only, no unit symbol.

Respond only with inhibition recorded for CC(N)C12CC3CC(CC(C3)C1)C2 (stereo not given)
-53.4

Respond only with inhibition recorded for O=c1c(O)c(-c2ccc(O)c(O)c2)oc2cc(O)cc(O)c12
-28.1

Respond only with inhibition recorded for Cc1ccnc2c1NC(=O)c1cccnc1N2C1CC1
-33.2

Respond only with inhibition recorded for CN(C)c1ccc(C(=C2C=CC(=[N+](C)C)C=C2)c2ccc(N(C)C)cc2)cc1
75.8

Respond only with inhibition recorded for NC(=O)NO
-5.49

----------
Item-by-item account of normalised cell number
# EXPERIMENTAL_DETAILS: EMT-state selective cytotoxicity in co-culture – imaging, PC-3E GFP, TEM4-18 mCherry, primary screen (AID 1345086);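 also: cells exposed to compound for 72 h before imaging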
# CONDITION: PC-3E GFP / TEM4-18 mCherry co-culture, imaging cell counts; measured here: epithelial PC-3E GFP cell survival; at 1 µM
Keep the answer to the number alone.

Cc1scc2c1N(C(=O)CN1CCN(C)CC1)c1ccccc1NC2=O
0.88
COC(=O)Nc1nc2ccc(C(=O)c3cccs3)cc2[nH]1
0.15
O=C1CCc2ccc(OCCCCN3CCN(c4cccc(Cl)c4Cl)CC3)cc2N1
1.31
N[C@@H](CCC(=O)N[C@@H](CS)C(=O)NCC(=O)O)C(=O)O
0.76

Respond only with normalised cell number recorded for CC(C)COCC(CN(Cc1ccccc1)c1ccccc1)N1CCCC1 (configuration not stated)
1.06

Respond only with normalised cell number recorded for S=P(N1CC1)(N1CC1)N1CC1
1.06

Respond only with normalised cell number recorded for O=c1cc[nH]c(=S)[nH]1
1.32

Respond only with normalised cell number recorded for CN(C)/N=N/c1nc[nH]c1C(N)=O
1.47

Respond only with normalised cell number recorded for COc1cc(NS(=O)(=O)c2ccc(N)cc2)nc(OC)n1
0.64

Respond only with normalised cell number recorded for COc1ccc2nc(S(=O)Cc3ncc(C)c(OC)c3C)[nH]c2c1 (configuration not stated)
0.98

Respond only with normalised cell number recorded for CCCCCCc1ccc(O)cc1O
1.14

Respond only with normalised cell number recorded for COc1cc2nc(N3CCN(C(=O)C4COc5ccccc5O4)CC3)nc(N)c2cc1OC (configuration not stated)
1.28
